# Cmax per record follows
Assay: Brain concentrations after PO administration in rat, peak at 8 hours (Table 5)
Format: in vivo
Conditions: Sprague-Dawley, brain, PO 50 mg/kg, Table 5 (8 hours)
Structures can show the parent of a compound that is named as a salt.

molecule	units	Cmax
Fc1ccc(Nc2ncnc3cc(OCCOC(F)F)c(OCCOC(F)F)cc23)c(F)c1Cl [Compound 2D•HCl]	ng/g	6340
C#Cc1cccc(Nc2ncnc3cc(OCCOC)c(OCCOC)cc23)c1 [Erlotinib•HCl]	ng/g	828
Fc1c(Nc2ncnc3cc(OCCOC(F)F)c(OCCOC(F)F)cc23)ccc(Cl)c1Cl [Compound 2A•HCl]	ng/g	5610

###

Target: EGFR (L858R) (Homo sapiens, UniProt P00533, L858R)
Construct: purchased Reaction Biology
Sequence (P00533 25-1210 L858R): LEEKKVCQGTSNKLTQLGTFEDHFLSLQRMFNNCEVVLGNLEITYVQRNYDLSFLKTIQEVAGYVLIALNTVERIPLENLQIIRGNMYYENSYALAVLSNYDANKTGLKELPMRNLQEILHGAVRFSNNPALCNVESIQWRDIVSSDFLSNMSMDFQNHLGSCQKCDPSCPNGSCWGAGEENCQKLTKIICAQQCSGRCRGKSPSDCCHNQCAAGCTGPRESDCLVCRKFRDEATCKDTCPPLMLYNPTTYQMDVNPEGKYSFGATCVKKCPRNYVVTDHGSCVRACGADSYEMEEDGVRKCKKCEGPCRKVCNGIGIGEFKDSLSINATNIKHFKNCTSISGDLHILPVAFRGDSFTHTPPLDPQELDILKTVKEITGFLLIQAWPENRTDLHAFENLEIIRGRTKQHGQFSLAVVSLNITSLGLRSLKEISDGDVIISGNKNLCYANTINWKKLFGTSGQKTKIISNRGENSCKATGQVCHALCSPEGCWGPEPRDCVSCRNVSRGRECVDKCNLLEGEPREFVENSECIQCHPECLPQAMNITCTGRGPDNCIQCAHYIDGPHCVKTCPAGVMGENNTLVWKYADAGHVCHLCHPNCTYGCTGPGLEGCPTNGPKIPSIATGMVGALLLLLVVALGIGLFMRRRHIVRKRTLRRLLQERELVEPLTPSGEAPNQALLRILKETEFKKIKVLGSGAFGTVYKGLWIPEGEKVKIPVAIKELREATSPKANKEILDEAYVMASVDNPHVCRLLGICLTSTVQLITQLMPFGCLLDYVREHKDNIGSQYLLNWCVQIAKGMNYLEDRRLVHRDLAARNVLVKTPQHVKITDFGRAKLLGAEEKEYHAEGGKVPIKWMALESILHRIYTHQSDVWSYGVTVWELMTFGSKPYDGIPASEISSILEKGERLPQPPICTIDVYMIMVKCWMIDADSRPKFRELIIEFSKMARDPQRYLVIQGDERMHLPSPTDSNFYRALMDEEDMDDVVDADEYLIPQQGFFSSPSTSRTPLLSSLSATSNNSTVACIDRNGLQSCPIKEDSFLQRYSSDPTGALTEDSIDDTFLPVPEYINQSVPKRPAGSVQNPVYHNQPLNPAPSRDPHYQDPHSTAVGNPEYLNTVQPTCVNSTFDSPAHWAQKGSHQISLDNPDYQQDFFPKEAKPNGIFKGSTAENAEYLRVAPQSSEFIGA
Assay: Kinase HotSpot profiling (Reaction Biology), 33P-ATP filter-binding
Format: biochemical
Conditions: mutant EGFR L858R

molecule	study.system	units	IC50
COc1cc2ncnc(Nc3ccc(F)c(Cl)c3F)c2cc1OC(=O)N1CC[C@@H](COC(F)F)C1 [2(Qq)]	EGFR (L858R) (Homo sapiens, UniProt P00533, L858R)	nM	0.0164
COc1cc2ncnc(Nc3ccc(F)c(Cl)c3F)c2cc1NC(=O)N1CCC(COC(F)F)CC1 [3(A)]	EGFR (L858R) (Homo sapiens, UniProt P00533, L858R)	nM	0.0891
COc1cc2ncnc(Nc3ccc(F)c(Cl)c3F)c2cc1OC(=O)N1CCC(OC(F)F)CC1 [2(Oo)]	EGFR (L858R) (Homo sapiens, UniProt P00533, L858R)	nM	0.052
C#Cc1cccc(Nc2ncnc3cc(OCCOC(F)F)c(OCCOC(F)F)cc23)c1F [2(Nn)]	EGFR (L858R) (Homo sapiens, UniProt P00533, L858R)	nM	0.977
COc1cc2ncnc(Nc3ccc(F)c(Cl)c3F)c2cc1OC(=O)N1CCC[C@H](OC(F)F)C1 [2(Pp)]	EGFR (L858R) (Homo sapiens, UniProt P00533, L858R)	nM	0.345
COc1cc2ncnc(Nc3ccc(F)c(Cl)c3F)c2cc1NC(=O)N1CC(OC(F)F)C1 [3(B)]	EGFR (L858R) (Homo sapiens, UniProt P00533, L858R)	nM	0.0138
COc1cc2ncnc(Nc3ccc(F)c(Cl)c3F)c2cc1OCCCN1CCC(OC(F)F)CC1 [2(q)]	EGFR (L858R) (Homo sapiens, UniProt P00533, L858R)	nM	0.0142

###

Experiment: Brain concentrations after PO administration in rat, peak at 8 hours (Table 5)
Type: in vivo
Details: Sprague-Dawley, brain/plasma, po, 50 mg/kg, Table 5 (8 hours), read-out: AUCLast Ratio (Brain/Plasma)
Where a name gives a salt, the structure may show the parent alone.
measure.name: Kp at 8 h

molecule	measure.name	value.reported
Fc1ccc(Nc2ncnc3cc(OCCOC(F)F)c(OCCOC(F)F)cc23)c(F)c1Cl [Compound 2D•HCl]	Kp at 8 h	1.92
Fc1c(Nc2ncnc3cc(OCCOC(F)F)c(OCCOC(F)F)cc23)ccc(Cl)c1Cl [Compound 2A•HCl]	Kp at 8 h	1.5

###

Target: P-gp (Homo sapiens)
Construct: host or cells: Caco-2 (C2BBe1)
Sequence (P08183 whole entry): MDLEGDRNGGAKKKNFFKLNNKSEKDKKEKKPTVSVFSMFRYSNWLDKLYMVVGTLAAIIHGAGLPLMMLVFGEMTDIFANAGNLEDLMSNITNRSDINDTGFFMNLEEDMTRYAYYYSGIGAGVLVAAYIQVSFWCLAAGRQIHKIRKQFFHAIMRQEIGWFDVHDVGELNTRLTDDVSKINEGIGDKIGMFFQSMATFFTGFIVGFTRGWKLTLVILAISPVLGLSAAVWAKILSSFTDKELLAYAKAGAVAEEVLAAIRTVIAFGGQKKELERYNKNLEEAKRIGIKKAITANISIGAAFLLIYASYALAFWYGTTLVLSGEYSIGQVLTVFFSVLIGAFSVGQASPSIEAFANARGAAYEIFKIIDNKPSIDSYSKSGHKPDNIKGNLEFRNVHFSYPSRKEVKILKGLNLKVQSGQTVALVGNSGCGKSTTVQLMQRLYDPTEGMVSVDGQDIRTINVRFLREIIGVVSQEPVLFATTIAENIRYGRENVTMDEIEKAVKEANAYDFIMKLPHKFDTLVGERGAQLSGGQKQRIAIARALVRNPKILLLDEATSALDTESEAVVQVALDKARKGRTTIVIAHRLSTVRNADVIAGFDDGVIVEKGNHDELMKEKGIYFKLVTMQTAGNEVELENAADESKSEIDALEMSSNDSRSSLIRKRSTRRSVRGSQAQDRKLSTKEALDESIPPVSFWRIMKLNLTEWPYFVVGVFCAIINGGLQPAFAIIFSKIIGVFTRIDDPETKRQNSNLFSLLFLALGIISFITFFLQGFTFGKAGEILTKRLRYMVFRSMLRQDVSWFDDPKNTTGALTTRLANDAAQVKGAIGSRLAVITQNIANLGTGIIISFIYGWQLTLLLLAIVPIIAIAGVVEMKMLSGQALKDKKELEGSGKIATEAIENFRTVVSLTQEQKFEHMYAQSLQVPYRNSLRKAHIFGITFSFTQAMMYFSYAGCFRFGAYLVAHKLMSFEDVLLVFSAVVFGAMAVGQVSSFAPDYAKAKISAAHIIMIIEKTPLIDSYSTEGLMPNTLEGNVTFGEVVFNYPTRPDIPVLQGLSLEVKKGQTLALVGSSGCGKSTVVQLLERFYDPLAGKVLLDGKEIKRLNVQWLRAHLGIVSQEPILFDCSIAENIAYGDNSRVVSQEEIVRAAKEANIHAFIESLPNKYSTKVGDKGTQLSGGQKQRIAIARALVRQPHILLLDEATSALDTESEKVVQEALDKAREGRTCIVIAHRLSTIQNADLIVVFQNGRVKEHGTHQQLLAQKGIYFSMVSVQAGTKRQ
Test: Evaluation of P-gp efflux in Caco-2 cell monolayers;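 further: Caco-2 monolayers dosed apically or basolaterally with test compound at 5 µM in HBSS with HEPES and glucose, 37 °C, donor and receiver sampled after 120 min, LC/MS peak areas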
Format: in vitro ADME
Settings: Caco-2, pH 7.4, with none (verapamil 0 μM), Caco-2, Verapamil 0 μM, read-out: Recovery (%) BL-AP
Where a name gives a salt, the structure may show the parent alone.
measure.name: recovery at 120 min, 5 μM (%)

compound	measure.name	units	value.reported
C[C@H]1O[C@@H](O[C@H]2[C@@H](O)C[C@H](O[C@H]3[C@@H](O)C[C@H](O[C@H]4CC[C@@]5(C)[C@H](CC[C@@H]6[C@@H]5C[C@@H](O)[C@]5(C)[C@@H](C7=CC(=O)OC7)CC[C@]65O)C4)O[C@@H]3C)O[C@@H]2C)C[C@H](O)[C@@H]1O	recovery at 120 min, 5 μM	%	84.3
Fc1c(Nc2ncnc3cc(OCCOC(F)F)c(OCCOC(F)F)cc23)ccc(Cl)c1Cl [Compound 2A•HCl]	recovery at 120 min, 5 μM	%	57.1
CC(C)NCC(O)COc1cccc2ccccc12 (centres unmarked)	recovery at 120 min, 5 μM	%	85
Fc1ccc(Nc2ncnc3cc(OCCOC(F)F)c(OCCOC(F)F)cc23)c(F)c1Cl [Compound 2D•HCl]	recovery at 120 min, 5 μM	%	30.4
C#Cc1cccc(Nc2ncnc3cc(OCCOC)c(OCCOC)cc23)c1 [Erlotinib•HCl]	recovery at 120 min, 5 μM	%	56.2

Reference source: patent US20180050993A1
